Tested on: TK-10
testDescription: NCI tumour cell line growth inhibition, 48 h
Active and inactive are the calls of the source. Cut-off read from the data, not from the text of the source: active = GI50 up to about 1.1 µM and inactive = higher.
Catalogue of GI50 readings, one per entry.
measuredParameter: GI50

[[record]]
compound = "COc1ccc2c(c1)-c1c(c3cc(OC)ccc3n1CCN(C)C)CC2"
measuredvalue = "15.5 µM (inactive)"

[[record]]
compound = "C/C(=N\\NC(=S)N1CCCCCCCCCCCC1)c1ccccn1"
measuredvalue = "0.166 µM (active)"

[[record]]
compound = "Cc1cc(=O)[nH]c2cc(NC(=O)C(C)NC(=O)C(C)NC(=O)C(C)NC(=O)OC(C)(C)C)ccc12 (stereo not drawn)"
measuredvalue = "> 15 µM (inactive)"

[[record]]
compound = "O=[N+]([O-])c1ccc(/C=N/n2c(CO)nc3ccccc32)o1"
measuredvalue = "6.55 µM (inactive)"

[[record]]
compound = "Cc1cn(Cc2ccccc2CCl)c(=O)[nH]c1=O"
measuredvalue = "15.3 µM (inactive)"

[[record]]
compound = "Cc1cccc(NC(=O)c2cccc([N+](=O)[O-])c2O)c1C"
measuredvalue = "53.6 µM (inactive)"

[[record]]
compound = "O=[N+]([O-])c1cc(/C=N/C23CC4CC(CC(C4)C2)C3)ccc1Cl"
measuredvalue = "29.7 µM (inactive)"

[[record]]
compound = "COc1cc(C(=O)Nc2c3ccccc3nc3ccccc23)cc(OC)c1OC"
measuredvalue = "> 100 µM (inactive)"

[[record]]
compound = "Nc1ncnc2c1ncn2C1OC(CO)C(O)C1NS(=O)(=O)c1ccccc1 (stereo not drawn)"
measuredvalue = "> 100 µM (inactive)"

[[record]]
compound = "O=[N+]([O-])c1ccc(Cc2nc3cc4ccccc4cc3[nH]2)cc1C(F)(F)F"
measuredvalue = "20.2 µM (inactive)"

[[record]]
compound = "CCOC(=O)C1(C)CCC(C(C(=O)O)C(=O)O)CC1=O (stereo not drawn)"
measuredvalue = "> 100 µM (inactive)"

[[record]]
compound = "CC(=O)Oc1ccc2cc(Oc3cc(Cl)c(Cl)cc3Cl)c(=O)oc2c1"
measuredvalue = "24.8 µM (inactive)"

[[record]]
compound = "COc1cc2ccc(CC#N)cc2cc1OC"
measuredvalue = "> 100 µM (inactive)"

[[record]]
compound = "CC1(C)OC2OC(/C=C/[N+](=O)[O-])C3OC(C)(C)OC3C2O1 (stereo not drawn)"
measuredvalue = "5.26 µM (inactive)"

[[record]]
compound = "CCC1OC2C(CC=C(C)C)=C3OC(C)(O)C(C)(CC)C(O)C3=C3OC(=O)C=C1C32 (stereo not drawn)"
measuredvalue = "70.6 µM (inactive)"

[[record]]
compound = "CCOC(=O)c1sc2nc(SC)nc3c2c1NCN3c1ccccc1Cl"
measuredvalue = "37.8 µM (inactive)"

[[record]]
compound = "CCOC(=O)C1(F)S(=O)(=O)OCCOS1(=O)=O"
measuredvalue = "> 100 µM (inactive)"

[[record]]
compound = "O=[N+]([O-])c1ccc(NC2OCC(O)C(O)C2O)cc1 (stereo not drawn)"
measuredvalue = "> 100 µM (inactive)"

[[record]]
compound = "O=c1cc(-c2ccccc2)oc2c1ccc1nc3ccccc3c(O)c12"
measuredvalue = "60.1 µM (inactive)"

[[record]]
compound = "CCC12CCCN(Cc3ccccc3)C1c1c(n(C)c3ccccc13)C(CO)C2 (stereo not drawn)"
measuredvalue = "64.9 µM (inactive)"

[[record]]
compound = "CC(C)CCC[C@@H](C)[C@H]1CC[C@H]2[C@@H]3CC=C4C[C@@H](OC(=O)c5cccc6c(=O)c7ccccc7[nH]c56)CC[C@]4(C)[C@H]3CC[C@]12C"
measuredvalue = "> 75 µM (inactive)"

[[record]]
compound = "O=C(/C=C/c1ccc([N+](=O)[O-])o1)N1CCN(Cc2ccccc2)CC1"
measuredvalue = "23.2 µM (inactive)"

[[record]]
compound = "Nc1nc2c(c(=O)[nH]1)NC(CO)CN2 (stereo not drawn)"
measuredvalue = "> 100 µM (inactive)"

